protocol.text: Plasma concentrations in mice following oral administration
condition.notes: ICR, mouse, po, 10 mg/kg
result.type: concentration at 1 h (ng/mL)

compound="Cc1c(NS(=O)(=O)c2c(Cl)cc(-c3ccc4sc5c(c4c3)CCNC5)cc2Cl)c(CC(C)C)nn1C [Compound 54]" data_value=3320

a = Cc1c(NS(=O)(=O)c2c(Cl)cc(-c3ccc4sc5c(c4c3)CNCC5)cc2Cl)c(CCF)nn1C [Compound B43]
b = Cc1c(NS(=O)(=O)c2ccc(-c3ccc4sc5c(c4c3)CNCC5)cc2Cl)c(CC(F)F)nn1C [Compound B59]
c = Cc1c(NS(=O)(=O)c2ccc(-c3ccc4oc5c(c4c3)CNCC5)cc2Cl)c(CC(F)(F)F)nn1C [Compound B39]
d = Cc1c(NS(=O)(=O)c2c(Cl)cc(-c3ccc4oc5c(c4c3)CNCC5)cc2Cl)c(CC2CC2)nn1C [Compound B26]
Query: Sort these compounds on concentration at 1 h so the largest reading comes first. Hello, could you send the labels back in the order asked? Thank you.
Reply: c, d, a, b

====

system.under.test: NMT1 enzyme (Homo sapiens)
protocol.text: Inhibitory activity on NMT1 enzyme catalysis (fluorescence intensity assay)
Type: biochemical
condition.notes: read-out: NMT1 (IC50); 6 nM NMT1 enzyme, 1.25 µM myristoyl-CoA, 20 µM HSPP60 SRC peptide, 45 minutes at 25 °C
result.type: pIC50
Scale: pIC50 equals -log10([C]), with [C] in mol/L.

Query: // lookup pIC50 | system=NMT1 enzyme (Homo sapiens) | key= Cc1c(NS(=O)(=O)c2c(Cl)cc(-c3ccc4sc5c(c4c3)CCNC5)cc2Cl)c(CC2CC2)nn1C
Reply: 8.58

====

system.under.test: NMT1 enzyme (Homo sapiens, UniProt P30419)
Sequence (P30419 whole entry): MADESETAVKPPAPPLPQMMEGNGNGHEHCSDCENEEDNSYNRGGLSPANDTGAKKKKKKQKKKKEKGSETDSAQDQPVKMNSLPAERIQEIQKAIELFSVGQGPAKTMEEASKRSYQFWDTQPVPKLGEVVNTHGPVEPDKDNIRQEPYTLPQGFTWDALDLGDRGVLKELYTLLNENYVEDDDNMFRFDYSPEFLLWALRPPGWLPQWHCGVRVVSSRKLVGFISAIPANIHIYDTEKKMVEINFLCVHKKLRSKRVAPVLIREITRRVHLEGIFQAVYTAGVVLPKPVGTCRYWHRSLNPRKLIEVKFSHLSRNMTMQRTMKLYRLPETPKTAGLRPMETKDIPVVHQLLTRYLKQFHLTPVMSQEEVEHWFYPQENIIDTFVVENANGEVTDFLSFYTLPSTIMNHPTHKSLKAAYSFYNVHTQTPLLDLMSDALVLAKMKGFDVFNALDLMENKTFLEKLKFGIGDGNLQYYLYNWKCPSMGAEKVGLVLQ
protocol.text: Inhibitory activity on NMT1 enzyme catalysis (fluorescence intensity assay)
Format: biochemical
condition.notes: 6 nM NMT1 enzyme, 1.25 µM myristoyl-CoA, 20 µM HSPP60 SRC peptide, 45 minutes at 25 °C; read-out: NMT1 (IC50)
pIC50: −log10 of the molar value.
result.type: pIC50

compound="Cc1c(NS(=O)(=O)c2c(Cl)cc(-c3ccc4sc5c(c4c3)CCNC5)cc2Cl)c(CC(C)C)nn1C [Compound 54]" result_type=pIC50 data_value=8.33
compound="Cc1c(NS(=O)(=O)c2c(Cl)cc(-c3ccc4sc5c(c4c3)CNCC5)cc2Cl)c(CCF)nn1C [Compound B43]" result_type=pIC50 data_value=8.75
compound="CCc1nn(C)c(C)c1NS(=O)(=O)c1c(Cl)cc(N2CCn3nc4c(c3C2)CNCC4)cc1Cl [Compound 70]" result_type=pIC50 data_value=8.46
compound="Cc1c(NS(=O)(=O)c2ccc(-c3ccc4sc5c(c4c3)CCNC5)cc2Cl)c(CCF)nn1C [Compound B49]" result_type=pIC50 data_value=8.63

1 = CCc1nn(C)c(C)c1NS(=O)(=O)c1c(Cl)cc(-c2ccc3oc4c(c3c2)CNCC4)cc1Cl [Compound 46]
2 = Cc1c(NS(=O)(=O)c2ccc(-c3ccc4sc5c(c4c3)CNCC5)cc2Cl)c(CCF)nn1C [Compound B48]
Query: Given 1 and given 2 , which shows the smaller recorded pIC50? Indicate your choice by writing its label.
Reply: 1
(1: 8.40, 2: 8.72)

A = Cc1c(NS(=O)(=O)c2ccc(-c3ccc4sc5c(c4c3)CCNC5)cc2Cl)c(CC#N)nn1C [Compound B20]
B = Cc1c(NS(=O)(=O)c2ccc(-c3ccc4sc5c(c4c3)CNCC5)cc2Cl)c(CC(F)(F)F)nn1C [Compound B37]
Query: Given A and given B , which shows the smaller recorded pIC50? Indicate your choice by writing its label.
Reply: A

The measurements presented in this section are drawn from patent EP4810492A1.
